// provenance: patent US20200109188A1

biological target: HA of H3-LA87 (A/Los Angeles/7/09 (H3N2)) virus (influenza A virus); assay: cell-based or functional assay
measurement_type: Neutralization IC50, H3-LA87 (µg/mL)
Give the value, in units of µg/mL, as a plain number.

Known results for binders:
Antibody 12 (antibody, V domains shown) VH: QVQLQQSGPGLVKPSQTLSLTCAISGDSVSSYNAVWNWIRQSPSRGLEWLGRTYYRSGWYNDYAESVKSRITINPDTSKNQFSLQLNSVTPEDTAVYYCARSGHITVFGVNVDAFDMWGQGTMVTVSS VL: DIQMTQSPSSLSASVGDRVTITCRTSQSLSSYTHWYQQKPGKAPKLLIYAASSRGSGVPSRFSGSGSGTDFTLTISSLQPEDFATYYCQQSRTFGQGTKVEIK ... 0.82
Antibody 11 (antibody, V domains shown) VH: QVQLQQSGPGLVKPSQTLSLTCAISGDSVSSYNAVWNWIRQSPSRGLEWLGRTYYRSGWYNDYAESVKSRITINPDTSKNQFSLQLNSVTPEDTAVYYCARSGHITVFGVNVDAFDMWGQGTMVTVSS VL: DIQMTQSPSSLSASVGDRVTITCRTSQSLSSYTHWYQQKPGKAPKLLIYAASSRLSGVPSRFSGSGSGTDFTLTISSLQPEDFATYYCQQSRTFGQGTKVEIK ... 0.8
Antibody 14 (antibody, V domains shown) VH: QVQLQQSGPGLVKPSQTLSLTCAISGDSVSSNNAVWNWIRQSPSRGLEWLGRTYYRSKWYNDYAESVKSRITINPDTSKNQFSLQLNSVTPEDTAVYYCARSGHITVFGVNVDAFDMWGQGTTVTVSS VL: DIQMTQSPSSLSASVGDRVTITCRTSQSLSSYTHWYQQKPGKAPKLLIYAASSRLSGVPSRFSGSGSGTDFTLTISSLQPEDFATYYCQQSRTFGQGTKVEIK ... 0.83
Antibody 15 (antibody, V domains shown) VH: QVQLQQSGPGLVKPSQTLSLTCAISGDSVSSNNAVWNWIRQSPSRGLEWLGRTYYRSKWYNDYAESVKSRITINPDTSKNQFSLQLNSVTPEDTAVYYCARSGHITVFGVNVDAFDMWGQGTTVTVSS VL: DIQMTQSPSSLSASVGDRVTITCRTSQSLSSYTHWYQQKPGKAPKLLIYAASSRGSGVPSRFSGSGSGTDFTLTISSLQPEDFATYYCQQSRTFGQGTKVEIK ... 0.83

// query Neutralization IC50, H3-LA87 value for entry Antibody 13 (antibody, V domains shown) VH: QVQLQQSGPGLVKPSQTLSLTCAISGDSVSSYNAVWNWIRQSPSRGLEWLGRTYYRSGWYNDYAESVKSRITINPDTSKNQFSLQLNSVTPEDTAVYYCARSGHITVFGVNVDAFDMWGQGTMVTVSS VL: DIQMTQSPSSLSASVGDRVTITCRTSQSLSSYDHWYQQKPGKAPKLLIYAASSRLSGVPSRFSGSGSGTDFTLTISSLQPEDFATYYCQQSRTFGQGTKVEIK
1
